System: UACC-257 melanoma
Experiment: NCI-60 one-dose screen, 48 h
Conditions: 10 µM unless noted
This is part of a sample that, as a whole, favours compounds with a hit. Of some 83,000 tested, about 20% had one in any assay. Activity calls are given as the source filed them. How the source made its calls: active means growth percent below 10; inactive means the rest.
Outcome codes: active, inactive

> print(dat)
                                    compound  classname
 1   CCCCCCCCc1cc[n+](CC(=O)c2ccc(Br)cc2)cc1     active
 2  CCCCOc1nc2ccc(Cl)cc2cc1/C=C/C(=O)/C=C1/CC(c2cc3cc(Cl)ccc3nc2OCCCC)Nc2ccccc2N1 (stereo not given)   inactive
 3  Cc1cc(Cl)nc(N(CCCNc2ccnc3cc(Cl)ccc23)Cc2ccccn2)n1   inactive
 4  Cc1csc(NC(=O)c2sc3nc(-c4cccs4)ccc3c2N)n1   inactive
 5  Cc1ccc(-n2nnc(C3=NCCc4c3[nH]c3ccc(Cl)cc43)c2C)cc1   inactive
 6  CC(=O)C(C(C)=O)c1nc2sc3cc(Cl)ccc3n2c(=N)c1C#N   inactive
 7        CN1CCC(=C2c3ccccc3C=Cc3ccccc32)CC1   inactive
 8                       CC(C)(O)c1cccc(F)c1   inactive
 9  O=C1Nc2ccccc2SC1c1ccccc1Cl (stereo not given)   inactive
10  C=C1C(=O)O[C@H]2[C@H]1CC/C(COC(=O)/C=C/C(=O)NCc1ccc(Cn3c(=O)sn(-c4ccccc4)c3=O)cc1)=C\CC[C@@]1(C)O[C@@H]21     active
11  CN1C[C@@H](c2ccc(Cl)cc2)[C@]2(NC(=S)N(c3ccccc3)C2=O)[C@@]12C(=O)NC1C=CC(Br)=C[C@H]12 (stereo not given in full)   inactive
12  CC(=O)Nc1ccc(-c2cc3c(NCc4ccc(F)cc4)ncnc3s2)cc1   inactive
13   O=C(c1ccccc1)c1ccc(Cl)c([N+](=O)[O-])c1   inactive
14  Clc1ccc(/C=C/c2nc(Nc3ccc(Cl)cc3)c3ccccc3n2)cc1   inactive
15  N#Cc1c(-c2ccc(C(F)(F)F)cc2)cc(N2CC(O)C2)n2c1nc1ccccc12   inactive
16  N=C(N)c1ccc(-c2ccc(-c3ccc(Cl)c(Cl)c3)o2)nc1   inactive
17  Cl.[Pt].[c-]1ccccc1-c1ccccn1.c1ccc(P(c2ccccc2)C([PH+](c2ccccc2)c2ccccc2)[PH+](c2ccccc2)c2ccccc2)cc1   inactive
18  CN(C)CCn1cc(-c2ccc3c(Nc4ccc(CC(=O)Nc5cccc(F)c5)cc4)ncnc3c2)cn1     active
19        CCCCCCCCCCCCCCCCCC1=NCCN1C(=O)OCCO   inactive
20  CCn1c(Sc2nnc(NC(C)=O)s2)nc2c1c(=O)n(C)c(=O)n2C   inactive

====

Test system: 786-0 renal
Assay: NCI-60 one-dose screen, 48 h
Details: 10 µM unless noted
This is part of a sample that, as a whole, favours compounds with a hit. Of some 83,000 tested, about 20% had one in any assay. Activity calls are given as the source filed them. Rule for the calls: active = growth percent below 10; inactive = the rest.
Outcome codes: active, inactive

> print(dat)
                                    compound  classname
 1        Cc1c2c(cn1Cc1ccccc1)CCc1cn[nH]c1-2   inactive
 2  CNC(=O)NCC1OC(n2cnc3c(NC(=O)Nc4ccccc4)ncnc32)C2OC(C)(C)OC12 (stereo not given)   inactive
 3                        NC(=S)N/N=C/C(=O)O   inactive
 4  C=C(C)C1CCC(=C)C2CCC3(C)OC12/C=C(/COC(C)=O)CCC3O (stereo not given)   inactive
 5  O=C(Nc1cccc2[nH]c(C(F)(F)F)nc12)c1cc(Cl)ccc1Cl   inactive
 6  O=C(NCc1cccnc1)c1cc(-c2csc3c(=O)cc(N4CCOCC4)oc23)cc2c1OCCO2   inactive
 7               O=C(Nc1ccccc1Cl)OCCN1CCOCC1   inactive
 8  O=C(CC12CC3CC(CC(C3)C1)C2)NCCOCCOCCOCCNC(=O)c1cc2c(o1)C(=O)c1ccccc1C2=O     active
 9  CNC(=O)c1cc(Oc2ccc3nc(NC(=O)Nc4cc(C(F)(F)F)cc(C(F)(F)F)c4)sc3c2)ccn1     active
10  O=C1/C(=C/c2ccccc2[N+](=O)[O-])COc2ccc(O)c(O)c21   inactive

====

Reported growth values for the following compounds.
System: A549/ATCC NSCLC
Assay: NCI-60 one-dose screen, 48 h (100 = growth as untreated, 0 = no growth, -100 = all killed)
Details: 10 µM unless noted
Method: Growth inhibition of the A549/ATCC human Non-Small Cell Lung tumor cell line is measured as a screen for anti-cancer activity. Cells are grown in 96 well plates and exposed to the test compound for 48 hours. Compounds are tested at a single concentration, which is 10^-5 M for most compounds. The reported endpoint is percent growth (GI% or GIPRCNT), where numbers from 0 - 100% represent growth inhibition, and numbers from -100% - 0 represent cell death. […]
About 83,000 compounds went through this panel and 20% of them were active in at least one assay; those are over-represented in the sample as a whole.

compound	growth, %
COC(=O)CCCNC(=O)C(=O)c1c(O)c(O)c(C(C)C)c2cc(C)c(-c3c(C)cc4c(C(C)C)c(O)c(O)c(C(=O)C(=O)NCCCC(=O)OC)c4c3O)c(O)c12	-6.82
CC[C@@H](C[C@H](CCO)c1ccccc1)c1cc2ccccc2o1	84.3
CCCCCCCCCCCCCCCCCC1=NCCN1C(=O)OCCO	-72.4
CC/C=C/[C@@H]1C=C[C@@H]2CCC[C@H]2[C@@H]1CC[C@H](O)[C@H](C)N	3.8
COc1ccc(/C(C)=C(\c2ccc(Cl)cc2)c2ccc(OCCN3CCCCC3)cc2)cc1F	53
Cc1csc(NC(=O)c2sc3nc(-c4cccs4)ccc3c2N)n1	94.7
C=C(C)[C@@H]1CC[C@]2(CNCCO)CC[C@]3(C)[C@H](CC[C@@H]4[C@@]5(C)CCC(N)[C@@](C)(CO)[C@@H]5CC[C@]43C)[C@@H]12 (some centres undefined)	-33.5
CCN(CC)CCCNC(=O)c1ccc(N)cc1	105
N=C(N)c1ccc(-c2ccc(-c3ccc(Cl)c(Cl)c3)o2)nc1	-35.2

====

System: U251 CNS
Assay: NCI-60 one-dose screen, 48 h
Conditions: 10 µM unless noted
This is part of a sample that, as a whole, favours compounds with a hit. Of some 83,000 tested, about 20% had one in any assay. The source made the active and inactive calls. How the source made its calls: active means growth percent below 10; inactive means the rest.
Outcome codes: Yes = active, No = inactive

compound	className
CCOc1ccc2nc(-c3cccc(OCC(=O)NC(C)C)c3)nc(Nc3ccc(-c4cn[nH]c4)cc3)c2c1	Yes
CCN(CCO)CC(=O)c1cc(Cl)cc(Cl)c1Cl	No
COc1cc(-c2ccc(-c3ccc(C(=N)N)nc3)s2)cc(OC)c1OC	No
CC1=NN(c2cccc(Cl)c2)C(=O)/C1=C\c1cn(CC(O)CN2CCCCC2)c2ccccc12 (stereo unspecified)	No
CC(C)c1ccc(NC(=O)Cc2ccc(Nc3ncnc4cc(-c5cnn(CCN(C)C)c5)ccc34)cc2)cc1	Yes
Fc1ccc(Nc2nc3nonc3nc2Nc2ccc(F)cc2)cc1	Yes
CN(C)c1ccc2cc(-c3ccc(Cl)c(Cl)c3)c(N)nc2c1	No
N=c1ccn2c(n1)OC1C(O)C(CO)OC12 (stereo unspecified)	No
O=c1[nH]c(NCc2nnnn2-c2ccc(Br)cc2)nc2sc3c(c12)CCCC3	No
COc1ccc(/C=C2\COc3ccc(O)cc3C2=O)c(OC)c1	No
Nc1ccc(S(=O)(=O)Nc2ccsc2-c2nc(-c3ccccc3)no2)cc1	No
CN=C1C=CC(=C(c2ccc(N(C)C)cc2)c2ccc(N(C)C)cc2)C=C1	Yes
NC(=S)c1csc(CCNC(=O)c2ccccc2)n1	No
Cc1ccc(S(=O)(=O)NN/C(N)=N\S(=O)(=O)c2cc(C)c(Cl)cc2SCc2ccccc2)cc1	No
Nc1ccc(CCCCc2ccccc2)c(Cl)c1	No
COc1cc2c(cc1OC)-c1ccc3cc4c(cc3c1N(CCCn1ccnc1)C2)OCO4	Yes
NC(N)=N/N=C/CO	No
C[C@]12CCC(=O)C[C@H]1CC[C@@H]1[C@@H]2CC[C@@]2(C)[C@H]1CC[C@]2(O)C(=O)CO	No
OC(COc1cccc2ccccc12)CN1CCN(c2ccccc2)CC1 (stereo unspecified)	No
O=C1CCC(N2C(=O)c3cccc(NCCCC4CCN(CCNC(=O)c5cc6c(o5)C(=O)c5ccccc5C6=O)CC4)c3C2=O)C(=O)N1 (stereo unspecified)	Yes
COc1ccc(NC(=O)C(=O)c2c[nH]c3ccc(F)cc23)cc1	No
CCCCCCCC/C=C\CCCCCCCC(=O)Oc1cccc2cccnc12	No
CCN(CC)CC(=O)Nc1cccc(C(=O)OC(C)C)c1	No
C/C(=N\NC(=O)Cn1c(-c2ccc(S(C)(=O)=O)cc2)nc2cc(Cl)ccc21)c1ccc(Cl)cc1	No
COc1cc2oc(-c3cccc(C(=O)Nc4ccc(C#N)cc4)c3)cc(=O)c2c(O)c1OC	No
Clc1ccc(/C=C/c2nc(Nc3ccc(Cl)cc3)c3ccccc3n2)cc1	No
COc1cc(/C=C/c2nc(Nc3ccc(S(=O)(=O)Nc4cc(C)on4)cc3)c3ccccc3n2)ccc1O	No
O=C1Nc2ccccc2/C1=N/N=C/c1ccsc1	No
O=C(NC1CCOCC1)c1ccc2c(c1)CN(c1ncc(Cc3cccc(-n4cccn4)c3)s1)CC2	No
Cl.[Pt].[c-]1ccccc1-c1ccccn1.c1ccc(P(c2ccccc2)C([PH+](c2ccccc2)c2ccccc2)[PH+](c2ccccc2)c2ccccc2)cc1	No
C[C@@H](C[C@H](CCOCc1cccnc1)c1ccccc1)c1cc2ccccc2o1	No
COc1cc2oc3cc(C)oc(=O)c3c2cc1OC	No
N#Cc1cnn2c(-c3ccc(Cl)cc3)nc(NCCc3ccccc3)nc12	No
Cc1cn(C2CCCCC2)c(=O)[nH]c1=O	No
CCCCS(=O)(=O)Oc1ccc(-c2nc(C)c(C(=O)OCC)s2)cc1C=O	No
C=C(CNCCc1ccc(O)cc1)[C@@H]1CC[C@]2(COC3CCCCO3)CC[C@]3(C)[C@H](CC[C@@H]4[C@@]5(C)CCC(NCCO)C(C)(C)[C@@H]5CC[C@]43C)[C@@H]12 (stereo partly specified)	Yes
CCN(CC)CCNc1ccc(C)c2sc3cc(C)ccc3c(=O)c12	No
CN(C)c1ccc(/C=N/NC(=O)COc2cc(=O)n(C)c3ccccc23)cc1	No
C/C(Cc1ccc(Cl)cc1)=C(/c1ccc(Cl)cc1)c1ccc(OCCN(C)C)cc1	No
N=C(N)c1ccc(-c2ccc(/C=C/c3ccccc3)s2)cc1	Yes
Nc1c(C(=O)c2ccccc2)nnc2ncnn12	No
